tested on: R275C; assay: modulators of BK channel variants, profiling panel, selectivity assay, cell-based, U2OS BacMam, thallium flux, beta subunits (AID 1259406); details: at 30 µM;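 also: initial slope of Thallos dye fluorescence rise after thallium is added; log ratio against the mean of 0.3% DMSO vehicle wells on the same plate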
Non-standard residues stand in square brackets, D forms with d. Residues, ends and D or L forms follow the SMILES beside them. pGlu = O=C1CC[C@@H](C(=O)O)N1; Thz = O=C(O)[C@@H]1CSCN1
So basically, if log fold change Tl+ flux comes in under 0.02 it's criterion met, and if it's 0.02 or more it's criterion not met.

log fold change Tl+ flux under 0.02? Item: CC(C)CC(NC(=O)C(COC(C)(C)C)NC(=O)C(Cc1ccc(O)cc1)NC(=O)C(CO)NC(=O)C(Cc1c[nH]c2ccccc12)NC(=O)C(Cc1cnc[nH]1)NC(=O)C1CCC(=O)N1)C(=O)N[C@@H](CCCN=C(N)N)C(=O)N1CCCC1C(=O)NNC(N)=O (some centres undefined)
criterion met

Another compound: CC(C)n1c(SCC(=O)c2ccccc2)nc2cc(Cl)ccc21
criterion met

Another compound: O=C(CC1SC(=NC2CC3C=CC2C3)NC1=O)Nc1ccccc1Cl (centres undefined)
criterion not met

Another compound: Cc1cc2c(NC(=O)c3ccccc3C(=O)O)cccc2nn1
criterion met

Another compound: CC(C)(C)OC(=O)N1CCC(c2nc(-c3ccc(Cl)s3)cs2)CC1
criterion met

Another compound: O=C(CCN1CCOCC1)Nc1cc(Cl)cc(Cl)c1
criterion not met

Another compound: O=C1CC[C@@H](C(=O)N2CSC[C@H]2C(=O)O)N1 ([pGlu]-[Thz]-OH)
criterion met

Another compound: CCc1nc2ccccc2nc1N1CCN(S(=O)(=O)c2ccc(Cl)cc2)CC1
criterion not met

Another compound: O=S(=O)(Nc1ccccc1SCc1ccc2nonc2c1)c1cccs1
criterion met

---

test: ICB984 medulloblastoma cell growth inhibition, synergistic combos for chromothripsis tumors, cisplatin or BGB combos (AID 1671451); settings: ICB984 medulloblastoma cells, drug combinations, BGB IC40 combo, at 0.005 µM, stronger effect = higher value;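 also: cells exposed for 96 hours before readout; 0% = vehicle DMSO and 100% = killing by high DMSO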
Class Fulfilled: inhibition at least -20%. Class Not fulfilled: inhibition below -20%.

inhibition >= -20% for O=c1cc(-c2cccc3c2Sc2ccccc2S3)oc(N2CCOCC2)c1 ?
Not fulfilled

Another molecule: O=c1[nH]c(-c2ccc(C(F)(F)F)cc2)nc2c1CSCC2
Not fulfilled

Another molecule: NC(=O)c1ncn(C2OC(CO)C(O)C2O)n1 (stereo unspecified)
Fulfilled

Another molecule: CO[C@H]1/C=C/O[C@@]2(C)Oc3c(C)c(O)c4c(O)c(c(C=NN5CCN(C)CC5)c(O)c4c3C2=O)NC(=O)/C(C)=C\C=C\[C@H](C)[C@H](O)[C@@H](C)[C@@H](O)[C@@H](C)[C@H](OC(C)=O)[C@@H]1C
Fulfilled

Another molecule: CCc1c2c(nc3ccc(O)cc13)-c1cc3c(c(=O)n1C2)COC(=O)[C@]3(O)CC
Fulfilled

Another molecule: O=c1ncccn1[C@@H]1O[C@H](CO)[C@@H](O)[C@H]1O
Not fulfilled

---

test system: R275C/beta2Delta; experiment: modulators of BK channel variants, profiling panel, selectivity assay, cell-based, U2OS BacMam, thallium flux, beta subunits (AID 1259406); details: at 30 µM;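 also: initial slope of Thallos dye fluorescence rise after thallium is added; log ratio against the mean of 0.3% DMSO vehicle wells on the same plate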
Record form. Attribute: log fold change Tl+ flux. Fill in for each entry.
// no unit string in output, number only

# log fold change Tl+ flux lookup, item CC1CC2C3CCC4=CC(=O)C=CC4(C)C3(F)C(O)CC2(C)C1(O)C(=O)CO (stereo unspecified)
-0.0295

Another compound: NC(=O)c1ncn(C2OC(CO)C(O)C2O)n1 (stereo unspecified)
-0.0258

Another compound: Cn1c(Sc2cnc(=S)[nH]c2-c2ccc(Cl)cc2)nnc1C(F)(F)F
-0.0183

Another compound: O=C(c1ccccc1)c1c(Cl)cc(C(F)(F)F)cc1Cl
0.0434

Another compound: COc1cccc(N2CC(=O)N(NC(=O)NC3CCCCC3)CC2=O)c1
-0.0493

Another compound: Cc1onc(-c2c(Cl)cccc2Cl)c1C(=O)NOC(=O)c1cccs1
0.0291
